Molecular target: Tyrosyl-tRNA synthetase, putative (Trypanosoma cruzi (strain CL Brener)) (UniProt Q4DSP6)
Sequence (whole entry): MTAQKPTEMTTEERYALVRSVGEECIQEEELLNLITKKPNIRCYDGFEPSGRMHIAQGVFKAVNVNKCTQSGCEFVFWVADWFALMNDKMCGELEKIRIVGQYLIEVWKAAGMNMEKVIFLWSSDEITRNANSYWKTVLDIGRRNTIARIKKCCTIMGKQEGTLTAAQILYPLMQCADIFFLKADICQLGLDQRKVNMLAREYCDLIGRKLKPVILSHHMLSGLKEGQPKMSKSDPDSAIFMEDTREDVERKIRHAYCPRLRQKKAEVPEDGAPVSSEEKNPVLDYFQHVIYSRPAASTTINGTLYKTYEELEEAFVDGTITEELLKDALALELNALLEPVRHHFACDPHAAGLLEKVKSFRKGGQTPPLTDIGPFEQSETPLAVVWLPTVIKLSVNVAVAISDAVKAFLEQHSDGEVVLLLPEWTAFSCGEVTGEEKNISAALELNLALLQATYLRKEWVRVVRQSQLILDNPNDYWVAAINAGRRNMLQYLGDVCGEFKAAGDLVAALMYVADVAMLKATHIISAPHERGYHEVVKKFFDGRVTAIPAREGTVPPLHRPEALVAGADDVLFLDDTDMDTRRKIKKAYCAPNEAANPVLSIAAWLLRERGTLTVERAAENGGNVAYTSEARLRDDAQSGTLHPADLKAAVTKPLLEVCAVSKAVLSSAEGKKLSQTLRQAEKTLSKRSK
Test: Trypanosoma cruzi tyrosyl tRNA synthetase (TcYRS) SOP
Type: functional
Set-up: scale not given: direction of the effect not stated beside the values
Conditions: 30 µM
Recorded Percent Effect split into classes band A = under 10%, band B = from 10% up to 20%, band C = 20% and over

> print(dat)
                                    compound                             target.system  discrete.label
 1  CCS(=O)(=O)N1CCC(c2nnc(CN3CCCC3)n2C2CC2)CC1  Tyrosyl-tRNA synthetase, putative (Trypanosoma cruzi (strain CL Brener)) (UniProt Q4DSP6)          band B
 2             Cc1cccc(OCCC(=O)N(C)CCC#N)c1C  Tyrosyl-tRNA synthetase, putative (Trypanosoma cruzi (strain CL Brener)) (UniProt Q4DSP6)          band B
 3     CSc1nccn1-c1cccc(C(=O)NCCCN2CCOCC2)c1  Tyrosyl-tRNA synthetase, putative (Trypanosoma cruzi (strain CL Brener)) (UniProt Q4DSP6)          band B
 4     O=C(c1ccncc1)N1Cc2ccccc2OC2(CCOCC2)C1  Tyrosyl-tRNA synthetase, putative (Trypanosoma cruzi (strain CL Brener)) (UniProt Q4DSP6)          band A
 5  COCCOc1ccc(NC(=O)C2CC(=O)N(C)C2)cn1 (configuration not stated)  Tyrosyl-tRNA synthetase, putative (Trypanosoma cruzi (strain CL Brener)) (UniProt Q4DSP6)          band B
 6    c1cc2nc(C3CCN(CC4CC4)CC3)nn2cc1N1CCCC1  Tyrosyl-tRNA synthetase, putative (Trypanosoma cruzi (strain CL Brener)) (UniProt Q4DSP6)          band A
 7       O=C(c1cccn1Cc1cccs1)N1CCN(C2CC2)CC1  Tyrosyl-tRNA synthetase, putative (Trypanosoma cruzi (strain CL Brener)) (UniProt Q4DSP6)          band B
 8  Cc1ccc(CNC2CCCc3c2cnn3C)s1 (configuration not stated)  Tyrosyl-tRNA synthetase, putative (Trypanosoma cruzi (strain CL Brener)) (UniProt Q4DSP6)          band C
 9  CCO[C@@H]1CO[C@@]2(CCCN(C(=O)COc3ccccc3OC)C2)C1  Tyrosyl-tRNA synthetase, putative (Trypanosoma cruzi (strain CL Brener)) (UniProt Q4DSP6)          band B
10  O=C(NCc1cccs1)[C@H]1CC[C@@H]2[C@@H](CCN2c2ncccn2)O1  Tyrosyl-tRNA synthetase, putative (Trypanosoma cruzi (strain CL Brener)) (UniProt Q4DSP6)          band B
11  Cn1ncc2c(=O)[nH]c(CN(Cc3cccc(F)c3)C3CC3)nc21  Tyrosyl-tRNA synthetase, putative (Trypanosoma cruzi (strain CL Brener)) (UniProt Q4DSP6)          band C
12  Cc1cc(O)nc(C2CCCN(Cc3ccncc3)C2)n1 (configuration not stated)  Tyrosyl-tRNA synthetase, putative (Trypanosoma cruzi (strain CL Brener)) (UniProt Q4DSP6)          band B

----------
target: Tyrosyl-tRNA synthetase, putative (Trypanosoma cruzi (strain CL Brener)); assay: Trypanosoma cruzi tyrosyl tRNA synthetase (TcYRS) _High Tyrosine SOP; type: functional; parameters: scale not given: in the data most compounds retested in dose-response had high values; details: 30 µM
Below: a set of entries, each annotated with reported Percent Effect.
property: Percent Effect (%)

> print(dat)
                                    compound        property  uom  recorded.value
 1                CC(=O)NCCN1CCC(c2cccs2)CC1  Percent Effect    %            2.15
 2  CC(C)c1nc2n(n1)CC(NCc1ccncc1)CC2 (configuration not stated)  Percent Effect    %            2.13
 3  O=C(c1ccc(C2CCCO2)s1)N1Cc2ccccc2C1 (configuration not stated)  Percent Effect    %           -2.65
 4     O=C(Cc1cccc(F)c1)NCCNCc1ccc2c(c1)CCO2  Percent Effect    %            8.74
 5      COc1ccc(CNC(=O)Nc2cccnc2N2CCCC2)cc1O  Percent Effect    %            2.46
 6  COc1cc(CCC(C)O)c(OC)c2c1OCO2 (configuration not stated)  Percent Effect    %           -1.06
 7  Cc1noc(CCCC(=O)NC(C)c2cn(-c3ccccc3)nn2)n1 (configuration not stated)  Percent Effect    %            2.45
 8  CC(=O)N1CC[C@H]2OCC[C@@H](C(=O)N3CCCCO3)[C@@H]2C1  Percent Effect    %            4.23
 9  Cc1noc(C)c1CN1C[C@@H]2COC[C@H](C(=O)N3CCCCO3)[C@@H]2C1  Percent Effect    %            6.38
10  CC(C)(C)N1CC(C(=O)N2CCN(CCc3ccccc3)CC2)CC1=O (configuration not stated)  Percent Effect    %            4.92
11  Cc1nonc1CN(C)CC1(O)CCCN(CCC2CCCCC2)C1=O (configuration not stated)  Percent Effect    %            10.4
12  CCCN(CC1COc2ccccc2O1)C(=O)CCn1cncn1 (configuration not stated)  Percent Effect    %            7.35

----------
In this section we review reported Percent Effect values for a set of molecules.
target: Chromo domain-containing protein 1 (Saccharomyces cerevisiae (strain ATCC 204508 / S288c) (Baker's yeast)); test: ScCHD-1 Enzyme Inhibition Assay; type: functional; set-up: scale not given: in the data most compounds retested in dose-response had high values; details: 30 µM
property: Percent Effect (%)

> print(dat)
                                   molecule  recorded.value
1  Fc1ccc(CNCC2OCCc3cn(CC4CC4)nc32)cc1 (stereo unspecified)            8.43
2  Cc1nc(CN2CCCC(Cn3cc(CCO)nn3)C2)c[nH]1 (stereo unspecified)           -7.08
3     CN(C)C(=O)N1CCN(CCn2nc3ccccn3c2=O)CC1           -5.93
4  CC(C)=CCN1CCOC(Cn2nc(C)cc2C)C1 (stereo unspecified)           -11.3
5  Cc1nn(CC(=O)N2CCC(Nc3cccnn3)CC2)c(C)c1Cl           -11.8
6  O=C(NCc1ccccn1)NC1CCOc2ccccc21 (stereo unspecified)           -5.33

----------
biological target: Tyrosyl-tRNA synthetase, putative (Trypanosoma cruzi (strain CL Brener)); test: Trypanosoma cruzi tyrosyl tRNA synthetase (TcYRS) SOP; assay type: functional; design: scale not given: direction of the effect not stated beside the values; conditions: 30 µM
property: Percent Effect (%)

> print(dat)
                                    compound                             target.system  uom  recorded.value
 1            CNc1nc(CNC(=O)Nc2cccc(F)c2)cs1  Tyrosyl-tRNA synthetase, putative (Trypanosoma cruzi (strain CL Brener))    %             6.1
 2  Cn1ccnc1CN1CCC2(COCCN(Cc3ccsc3)C2)C1 (stereo not drawn)  Tyrosyl-tRNA synthetase, putative (Trypanosoma cruzi (strain CL Brener))    %              21
 3  O=C1CCC2(CCN(Cc3cc(F)ccc3Cl)CC2)CN1C1CCCC1  Tyrosyl-tRNA synthetase, putative (Trypanosoma cruzi (strain CL Brener))    %            13.6
 4  Cc1c(NC(=O)NCC(C)N2CCOCC2)cccc1OC(F)F (stereo not drawn)  Tyrosyl-tRNA synthetase, putative (Trypanosoma cruzi (strain CL Brener))    %           -3.66
 5       Cc1nc(N2CCCC2)nc2c1CCN(Cc1ccco1)CC2  Tyrosyl-tRNA synthetase, putative (Trypanosoma cruzi (strain CL Brener))    %            12.5
 6  COc1ccc(-c2cc(C3CCCCCN3S(=O)(=O)N(C)C)on2)cc1 (stereo not drawn)  Tyrosyl-tRNA synthetase, putative (Trypanosoma cruzi (strain CL Brener))    %           -66.2
 7  CCc1c(C)nc2n(c1=O)CC(C(=O)Nc1nc3c(s1)CCCC3)CS2 (stereo not drawn)  Tyrosyl-tRNA synthetase, putative (Trypanosoma cruzi (strain CL Brener))    %            14.1
 8  CC(C)[C@H](NC(=O)NC1CCS(=O)(=O)C1)C(=O)Nc1cccnc1 (stereo partly drawn)  Tyrosyl-tRNA synthetase, putative (Trypanosoma cruzi (strain CL Brener))    %            12.8
 9   COCCN(Cc1nc2c(cnn2C)c(=O)[nH]1)Cc1ccco1  Tyrosyl-tRNA synthetase, putative (Trypanosoma cruzi (strain CL Brener))    %            18.5
10        COc1ncccc1NC(=O)N1CCC(CNC(C)=O)CC1  Tyrosyl-tRNA synthetase, putative (Trypanosoma cruzi (strain CL Brener))    %            13.6
11  O=C1CCCN1Cc1ncn2c1CN(C(=O)c1cccc(F)c1)CCC2  Tyrosyl-tRNA synthetase, putative (Trypanosoma cruzi (strain CL Brener))    %            16.1
12  Cc1nc(C2CCCN2CC(=O)N2CCCc3ccccc32)no1 (stereo not drawn)  Tyrosyl-tRNA synthetase, putative (Trypanosoma cruzi (strain CL Brener))    %            4.88
13  O=C(c1ccc2c(c1)CCC2)N1C[C@@H](CN2CCOCC2)[C@@H](CO)C1  Tyrosyl-tRNA synthetase, putative (Trypanosoma cruzi (strain CL Brener))    %             3.7
14  Cc1ccc(-c2nc(CN3CCC(C(=O)N(C)C)CC3)cs2)o1  Tyrosyl-tRNA synthetase, putative (Trypanosoma cruzi (strain CL Brener))    %            22.8
15  O=C(O)[C@]12CCCN(Cc3ccccc3)C[C@H]1CN(c1ncccn1)C2  Tyrosyl-tRNA synthetase, putative (Trypanosoma cruzi (strain CL Brener))    %            12.5
16     Cc1nc(CN2CCCN(CC(=O)Nc3cccnc3)CC2)no1  Tyrosyl-tRNA synthetase, putative (Trypanosoma cruzi (strain CL Brener))    %            9.41
17   CCc1[nH]ncc1C(=O)N1CCCN(Cc2cnn(C)c2)CC1  Tyrosyl-tRNA synthetase, putative (Trypanosoma cruzi (strain CL Brener))    %            18.8
18    O=C(O)C1(Cc2ccccc2Cl)CCN(c2ncccc2F)CC1  Tyrosyl-tRNA synthetase, putative (Trypanosoma cruzi (strain CL Brener))    %            2.44
19   Cn1nc2c(cc1=O)CN(Cc1coc(-c3cccs3)n1)CC2  Tyrosyl-tRNA synthetase, putative (Trypanosoma cruzi (strain CL Brener))    %             3.7
20  O=C(c1ccc(F)cc1)N1C[C@@H]2OCCN(c3ncccn3)[C@@H]2C1  Tyrosyl-tRNA synthetase, putative (Trypanosoma cruzi (strain CL Brener))    %              15
21  Cn1cc(NS(=O)(=O)c2ccc(OC(F)(F)F)cc2)ccc1=O  Tyrosyl-tRNA synthetase, putative (Trypanosoma cruzi (strain CL Brener))    %            8.86
22  Cc1cccc(C)c1OCCNC(=O)NC(C)c1nncn1C (stereo not drawn)  Tyrosyl-tRNA synthetase, putative (Trypanosoma cruzi (strain CL Brener))    %            23.5
23  CNS(=O)(=O)Cc1ccc(CNc2cncc(-n3cccn3)n2)cc1  Tyrosyl-tRNA synthetase, putative (Trypanosoma cruzi (strain CL Brener))    %            24.4
